test system: HCC-2998 colon; assay: NCI tumour cell line growth inhibition, 48 h
metric-name: GI50

Cc1cc(N2CCN(c3ccnc4cc(Cl)ccc34)CC2)nc(NC2CCCCC2)n1; 2 µM
C=CCN(CC=C)C(=O)c1cc(C)nc2c1c(=O)n(-c1ccccc1)c(=O)n2CC(O)CN1CCN(c2ncccn2)CC1 (configuration not stated); > 100 µM
O=C([CH-]C(=O)c1ccccc1)c1ccccc1.O=C([CH-]C(=O)c1ccccc1)c1ccccc1.O=C([CH-]C(=O)c1ccccc1)c1ccccc1.[OH3+].[Y+3]; 10.3 µM
CC/C(=C(/CC)c1ccc(O)cc1)c1ccc([O-])cc1.CC/C(=C(/CC)c1ccc(O)cc1)c1ccc([O-])cc1.O=C([CH-]C(=O)c1ccccc1)c1ccccc1.O=C([CH-]C(=O)c1ccccc1)c1ccccc1.[Ti+4]; 12.2 µM
O=S(=O)(c1ccc(N=C2NN=C(c3c[nH]c4ccccc34)CS2)cc1)N1CCOCC1; 24.6 µM

Query: Looking for the measured GI50 of `COc1cccc(-c2nc3sccn3c2-c2ccnc(NCCNS(=O)(=O)c3ccccc3)c2)c1` , can you help?
Result: 6.23 µM

Query: Looking for the measured GI50 of `NC(=O)c1ccc2c(-c3ccnc(NCCCO)n3)c(-c3ccc(F)cc3)nn2c1` , can you help?
Result: > 25 µM

Source listed as PubChem BioAssay (NCI).
